Every entry's value here was drawn from PubChem BioAssay AID493105.

System: emLYPLA2
METHOD: LYPLA1 and LYPLA2 inhibitors, biochemical, gel-based ABPP, fluorescence, recombinant and endogenous enzyme (AID 493105)
COND: fluorescent probe labeling, membrane fraction, at 20 µM, active compounds read high
Use 9% as the dividing line for inhibition, with the line itself on the 1 side and lower values as 0.

## Task Does the compound COc1ccc(-n2nc(C(=O)NCC(=O)N3CCN(Cc4ccccc4)CC3)c3ccccc3c2=O)cc1OC have recorded inhibition that is 9% or more?
## Result 1

## Task Check this compound for inhibition at or above 9%: O=C(c1ccc(-c2ccccc2)c(F)c1)C1CCCN(C(=O)c2cncs2)C1 (stereo not given)
## Result 1

## Task Please indicate if the recorded inhibition for O=C(/C=C/c1ccccc1)N1CCN(CCN2C(=O)c3cccc4cccc(c34)C2=O)CC1 meets or exceeds 9%.
## Result 1

## Task Answer whether inhibition of COc1cccc(N=C2NC(=O)/C(=C/c3cc([N+](=O)[O-])ccc3O)S2)c1 is greater than or equal to 9%.
## Result 0

## Task Could you verify whether the entry NS(=O)(=O)c1ccc(CCNC(=O)c2cc([N+](=O)[O-])ccc2N2CCCCC2)cc1 shows inhibition of no less than 9%?
## Result 0

## Task Please check the record O=C(CN1CCN(C(=O)c2ccco2)CC1)Nc1cc(C(F)(F)F)ccc1Cl and state if its inhibition is at or above 9%.
## Result 1

## Task Item O=C(N1CCOCC1)n1nnc2ccccc21 with inhibition of 9% or above?
## Result 1

## Task Exam item: decide whether the reported inhibition for CSc1ccccc1OCc1cc(C(=O)N2CCC(Oc3cccnc3)CC2)no1 is at least 9%.
## Result 1

## Task Is inhibition for N#Cc1c(NC(=O)CSc2nc(N)cc(=O)[nH]2)sc2c1CCCC2 at or above 9%?
## Result 0

## Task Could you please find out whether Cc1nn(-c2ccccc2)c(N2CCCC2)c1/C=N/Nc1ccc(S(N)(=O)=O)cc1[N+](=O)[O-] has inhibition that meets 9% or exceeds it?
## Result 0

## Task Given the entry O=C(CCCc1ccccc1)N1CCN(c2ccc([N+](=O)[O-])cc2)CC1 , answer whether its inhibition meets or surpasses 9%.
## Result 0

## Task Textbook exercise: given the entry O=C(CCN1CCN(c2ccc([N+](=O)[O-])cc2)CC1)c1ccc(Cl)cc1 , state whether its inhibition is greater than or equal to 9%.
## Result 0

## Task Check if inhibition >= 9% (inclusive). Item: COc1ccc(C(=O)NC(=S)Nc2ccc(N3CCN(C(C)=O)CC3)cc2)cc1[N+](=O)[O-]
## Result 1

## Task Is reported inhibition greater than or equal to 9% here: COc1ccc(C(=O)NC(=S)Nc2ccc(N3CCOCC3)c(Cl)c2)cc1[N+](=O)[O-]
## Result 0

## Task Hello, I need to know if CCOc1cc(CN2CCCC(C(=O)c3cccc(C(F)(F)F)c3)C2)ccc1O (stereo not given) has measured inhibition not below 9%. Thanks!
## Result 0

## Task Hello, I need to know if O=C(COc1ccc(Br)cc1)N1CCN(c2ccc([N+](=O)[O-])c(N3CCCCC3)c2)CC1 has measured inhibition not below 9%. Thanks!
## Result 0

## Task Hi team, for O=[N+]([O-])c1ccc(N2CCC(=NOCc3ccc(Cl)cc3)CC2)cc1 , is the recorded inhibition at or above 9%?
## Result 1

## Task Could you please find out whether O=C(c1ccc2n[nH]nc2c1)N1CCN(c2ccc(C(F)(F)F)cn2)CC1 has inhibition that meets 9% or exceeds it?
## Result 1

## Task Does the compound CC(=O)N1CCC2(CC1)C/C(=N\NC(=S)Nc1ccc(C)cc1)c1cc(O)ccc1O2 have recorded inhibition that is 9% or more?
## Result 0

## Task Has O=c1ccc2ccc(Oc3ccc([N+](=O)[O-])cc3Cl)cc2o1 a recorded inhibition greater than or equal to 9%?
## Result 1

## Task Determine whether this compound has inhibition no lower than 9%: Cc1ccc(OCC(=O)N2CCN(C(=O)CCC3CCCC3)CC2)cc1
## Result 1

## Task Tell me whether inhibition is at least 9% here: O=C(CN1CCN(C(=O)c2ccccc2)CC1)Nc1cc(S(=O)(=O)N2CCCC2)ccc1Cl
## Result 1

## Task Is it the case that O=C(/C=C/c1ccc(Br)cc1)N1CCN(c2cccc(C(F)(F)F)c2)CC1 has inhibition reaching or exceeding 9%?
## Result 1

## Task Answer whether inhibition of Cc1ccc(OCC(=O)N2CCN(c3ccc([N+](=O)[O-])c(N4CCOCC4)c3)CC2)cc1 is greater than or equal to 9%.
## Result 0

## Task Is it the case that O=C1N=C(N2CCN(Cc3ccccc3)CC2)S/C1=C/c1cccs1 has inhibition reaching or exceeding 9%?
## Result 0

## Task Could you please find out whether CCN(CC)S(=O)(=O)c1cccc(-c2nnc(SCCOc3ccccc3)o2)c1 has inhibition that meets 9% or exceeds it?
## Result 1

## Task // inclusive: inhibition at least 9%? input: COc1ccc(S(=O)(=O)Nc2ccc(Cc3ccncc3)cc2)cc1C
## Result 0

## Task For this compound, is measured inhibition 9% or higher? N#Cc1c(NC(=O)CN2CCN(C(=O)c3ccco3)CC2)sc2c1CCCCC2
## Result 0

## Task Hello, I need to know if Clc1cccc(N2CCN(CCNc3nc4ccccc4n4cnnc34)CC2)c1 has measured inhibition not below 9%. Thanks!
## Result 0

## Task Hello, I need to know if CC(=O)N1CCN(c2ccc(NC(=S)NC(=O)c3ccc(C)c([N+](=O)[O-])c3)cc2)CC1 has measured inhibition not below 9%. Thanks!
## Result 1

## Task # check: inhibition of Cc1ccc(C)c(C(=O)CCC(=O)N2CCN(c3cccc(C(F)(F)F)c3)CC2)c1 is greater than or equal to 9%
## Result 0

## Task Given CC(=O)c1ccc(N2CCN(C(=O)c3ccc(C(=O)c4ccccc4)cc3)CC2)cc1 , state whether its inhibition is at least 9%.
## Result 0

## Task Is inhibition at least 9%? Consider COc1ccc(C(=O)NC(=S)Nc2ccc(N3CCOCC3)cc2)cc1Cl
## Result 0

## Task Threshold query (inhibition >= 9%) on CC1CC(C)CN(S(=O)(=O)c2ccc3c(c2)CC(C)N3C(=O)C2CCC2)C1 (stereo not given)
## Result 0

## Task Reported inhibition at or above 9%? O=C(Nc1ccc2oc(-c3cccnc3)nc2c1)c1ccc2c(c1)OCCO2
## Result 0

## Task Is it the case that O=C(c1cc(COc2cccc(C(F)(F)F)c2)on1)N1CCC(Oc2cccnc2)CC1 has inhibition reaching or exceeding 9%?
## Result 0

## Task Quick check: does CCC(=O)N1CCN(c2ccc(NC(=S)NC(=O)c3cccc([N+](=O)[O-])c3)cc2)CC1 have inhibition greater than or equal to 9%?
## Result 0

## Task Confirm if inhibition reported for the compound O=C(c1ccc(S(=O)(=O)N2CCCCC2)cc1)N1CCN(CCN2C(=O)c3cccc4cccc(c34)C2=O)CC1 is 9% or above.
## Result 1
